Assay: qHTS assay for small molecule agonists of the antioxidant response element (ARE) signaling pathway measured by Nrf2-dependant transcriptional activity - cell viability counter screen (AID 720653); also: % is scaled to controls: 0 for no effect and ±100 for the full control effect
Conditions: ARE-bla HepG2 viability, CellTiter-Glo ATP luminescence, 16 h; active compounds read low
Inconclusive results are not listed.
Reported property: max response (%)
Numeric only. Scale: %

Recorded max response for CCN(Cc1c(F)cccc1Cl)c1c([N+](=O)[O-])cc(C(F)(F)F)cc1[N+](=O)[O-] , please?
-3.47

Recorded max response for Nc1cc(Cl)nc(C(=O)O)c1Cl , please?
-4.32

Recorded max response for O=C(O)C(Oc1ccc(Cl)cc1)Oc1ccc(Cl)cc1 , please?
-5.82

Now consider a different compound.
Recorded max response for C=C[Si](C)(C)O[Si](C)(C)C=C , please?
-2.71
